Tested on: H3N2 subtype
assay.notes: Antiviral activity against Influenza A virus A/HK/7/87(H3N2) infected in MDCK cells assessed as reduction in virus-induced cytopathic effect after 3 days by microscopic method
Format: functional, organism-based
settings: A/Hong Kong/7/1987(H3N2), 72 h

compound	EC50
CCCCOCc1cn(CCOCCOCCOCCOCc2cn([C@H]3C(=O)N[C@@H]4Cc5ccc(c(Cl)c5)Oc5cc6cc(c5O)Oc5ccc(cc5Cl)[C@@H](O[C@@H]5O[C@H](CO)[C@@H](O)[C@H](O)[C@H]5NC(C)=O)[C@H]5NC(=O)[C@H](NC(O)[C@@H]6NC(=O)[C@@H](NC4=O)c4cc(O)cc(c4)Oc4cc3ccc4O)c3ccc(O)c(c3)-c3c(O)cc(O)cc3[C@H](C(=O)O)NC5=O)nn2)nn1 (stereo partly specified)	> 100 µM
CCCCSC1=C(SCCCC)C(=O)N([C@H]2C(=O)N[C@@H]3Cc4ccc(c(Cl)c4)Oc4cc5cc(c4O)Oc4ccc(cc4Cl)[C@@H](O[C@@H]4O[C@H](CO)[C@@H](O)[C@H](O)[C@H]4NC(C)=O)[C@H]4NC(=O)[C@H](NC(O)[C@@H]5NC(=O)[C@@H](NC3=O)c3cc(O)cc(c3)Oc3cc2ccc3O)c2ccc(O)c(c2)-c2c(O)cc(O)cc2[C@H](C(=O)O)NC4=O)C1=O (stereo partly specified)	> 100 µM
CCCCCCCCS(=O)(=O)N[C@H]1C(=O)N[C@@H]2Cc3ccc(c(Cl)c3)Oc3cc4cc(c3O)Oc3ccc(cc3Cl)[C@@H](O[C@@H]3O[C@H](CO)[C@@H](O)[C@H](O)[C@H]3NC(C)=O)[C@H]3NC(=O)[C@H](NC(O)[C@@H]4NC(=O)[C@@H](NC2=O)c2cc(O)cc(c2)Oc2cc1ccc2O)c1ccc(O)c(c1)-c1c(O)cc(O)cc1[C@H](C(=O)O)NC3=O (stereo partly specified)	2 µM
CCCCCCCCCCCCCCCCOCc1cn([C@H]2C(=O)N[C@@H]3Cc4ccc(c(Cl)c4)Oc4cc5cc(c4O)Oc4ccc(cc4Cl)[C@@H](O[C@@H]4O[C@H](CO)[C@@H](O)[C@H](O)[C@H]4NC(C)=O)[C@H]4NC(=O)[C@H](NC(O)[C@@H]5NC(=O)[C@@H](NC3=O)c3cc(O)cc(c3)Oc3cc2ccc3O)c2ccc(O)c(c2)-c2c(O)cc(O)cc2[C@H](C(=O)O)NC4=O)nn1 (stereo partly specified)	≤ 8.9 µM
CC(=O)Nc1ccc(S(=O)(=O)N[C@H]2C(=O)N[C@@H]3Cc4ccc(c(Cl)c4)Oc4cc5cc(c4O)Oc4ccc(cc4Cl)[C@@H](O[C@@H]4O[C@H](CO)[C@@H](O)[C@H](O)[C@H]4NC(C)=O)[C@H]4NC(=O)[C@H](NC(O)[C@@H]5NC(=O)[C@@H](NC3=O)c3cc(O)cc(c3)Oc3cc2ccc3O)c2ccc(O)c(c2)-c2c(O)cc(O)cc2[C@H](C(=O)O)NC4=O)cc1 (stereo partly specified)	> 100 µM
CC(=O)N[C@H]1[C@H]([C@H](O)[C@H](O)CO)OC(C(=O)O)=C[C@@H]1N=C(N)N	20 µM

###

assay.notes: Cytotoxicity against MDCK cells assessed as alteration in cell morphology after 3 days by microscopic method
Type: cell-based, Canis lupus familiaris
settings: dog
quantity.kind: MCC at 72 h (µM)

molecule	relation.operator	observed.result
CCCCSC1=C(SCCCC)C(=O)N(CCOCCOCCOCCOCc2cn(C3C(=O)N[C@@H]4Cc5ccc(c(Cl)c5)Oc5cc6cc(c5O)Oc5ccc(cc5Cl)[C@@H](O[C@@H]5O[C@H](CO)[C@@H](O)[C@H](O)[C@H]5NC(C)=O)[C@H]5NC(=O)[C@H](NC(O)[C@@H]6NC(=O)[C@@H](NC4=O)c4cc(O)cc(c4)Oc4cc3ccc4O)c3ccc(O)c(c3)-c3c(O)cc(O)cc3[C@H](C(=O)O)NC5=O)nn2)C1=O (some centres not stated)	=	100
CCCCCCCCCCCCSC1=C(SCCCCCCCCCCCC)C(=O)N([C@H]2C(=O)N[C@@H]3Cc4ccc(c(Cl)c4)Oc4cc5cc(c4O)Oc4ccc(cc4Cl)[C@@H](O[C@@H]4O[C@H](CO)[C@@H](O)[C@H](O)[C@H]4NC(C)=O)[C@H]4NC(=O)[C@H](NC(O)[C@@H]5NC(=O)[C@@H](NC3=O)c3cc(O)cc(c3)Oc3cc2ccc3O)c2ccc(O)c(c2)-c2c(O)cc(O)cc2[C@H](C(=O)O)NC4=O)C1=O (some centres not stated)	≤	4
